Each recorded value in this set is attributed to ChEMBL document CHEMBL3217635.

Consider the following molecules; for each one, report its Retention_time.
# Protocol text: Metabolic stability in human RBC assessed as retention time at 7.8 mg/ml by LC-MS analysis
# Type: ADME, cell-based
# Experimental parameters: erythrocyte
Your answer is read as min, so omit the unit and give the number.

// `COc1ccc2c(c1)C(=O)C(c1ccc(Oc3ccccc3)cc1)=[N+]2[O-]` : Retention_time value = 23.5

// `O=C1C(c2ccc(Cl)cc2)=[N+]([O-])c2cc3c(cc21)OCO3` : Retention_time value = 18.2

// `COc1ccc2c(c1)C(=O)C(c1ccc(N(C)C)cc1)=[N+]2[O-]` : Retention_time value = 14

// `COc1ccc2c(c1)C(=O)C(c1ccc(Cl)c(C)c1)=[N+]2[O-]` : Retention_time value = 22.6

// `O=C1C(c2ccc(Cl)c(Cl)c2)=[N+]([O-])c2ccccc21` : Retention_time value = 20.9

// `COc1ccc2cc(C3=[N+]([O-])c4ccccc4C3=O)ccc2c1` : Retention_time value = 17.4
